experimental details: yeast display, Sf9 membrane polyspecificity reagent, FACS + sequencing; frameworks hold sequencing errors

[
  {
    "chain sequence": "QVQLVESGGGLVQAGGSLRLSCAASGRIFGGYDMGWYRQAPGKERELVAAMTSDSSTTYADSVKGRFTISRDNAKNTVYLQMNSLKPEDTAVYYCAVQVNGPVFYRPYLDYDYWGQGTQVTVSS",
    "polyreactivity (PSR sort gate)": "low polyreactivity"
  },
  {
    "chain sequence": "QVQLVESGGGLVQAGGSLRLSCAASGITFKTYAMGWYRQAPGKERELVATINRGSRTNYADSVKGRFTISRDNAKNTVYLQMNSLKPEDTAVYYCAAHYTTFIPSPDGDYLGQGTQVTVSS",
    "polyreactivity (PSR sort gate)": "low polyreactivity"
  },
  {
    "chain sequence": "QVQIVESGGGLVQAGGSLRLSCAASGFTFWNYAMGWYRQAPGKERELVATITRSGGRTYYADSVKGRFTISRDHAKNTGYLQMNSLIPEDTAVYYCSARVWPVVYSWGYNYLGQGTQVTVSS",
    "polyreactivity (PSR sort gate)": "high polyreactivity"
  },
  {
    "chain sequence": "QVQLVESGGGLVQAGGSLRLSCAASGITFQYYDMGWYRQAPGKEREFVAAISWRSGRTYYADSVKGRFTISRDNAKNTVYLQMNSLKPDDTAVYYCTAALYGVTTDMDYWGQGTQVTVSS",
    "polyreactivity (PSR sort gate)": "high polyreactivity"
  },
  {
    "chain sequence": "QVQLVESGRGLVQAGGSLRLSCAASGSIFSGNAMGWYRQAPGKERELVAAISRSGGSTYYADSVKGRFTISRDNAKNTVYLQLYSLKPEDTAVYYCAAYRTHGPPRALRFDYWGQGTLVTVSS",
    "polyreactivity (PSR sort gate)": "high polyreactivity"
  }
]
